Numbers sourced from ChEMBL document CHEMBL5725517.

Assay: HS-R1a radioreceptor assay: GHS-R1a radioreceptor assay using LLCPK-1 membranes overexpressing GSH-R1a and radioiodinated (1-28) rat ghrelin as tracer.
Starred links: 1 amine or outer side, 2 acyl side, 3 side chain; linkers in the order of their positions; H or OH if unused. Non-standard residues stand in square brackets, D forms with d. Residues, ends and D or L forms follow the SMILES beside them. X4 = O=C(N(Cc1ccc(-c2ccccc2)cc1)N[*:1])[*:2]; azaTyr = O=C(N(Cc1ccc(O)cc1)N[*:1])[*:2]; X3 = O=C(N(Cc1cccc2ccccc12)N[*:1])[*:2]; azaPhe = O=C(N(Cc1ccccc1)N[*:1])[*:2]; X2 = O=C(N(CCc1ccccc1)N[*:1])[*:2]; azaLeu = CC(C)CN(N[*:1])C(=O)[*:2]; X1 = O=C(N(CC1CCCCC1)N[*:1])[*:2]
measurement-kind: pEC50
Convention used: pEC50 is expressed as -log10 of the molar concentration.

Consider the worked cases shown below.
- compound: "C[C@H](NC(=O)[C@@H](Cc1c[nH]c2ccccc12)NC(=O)[C@@H](N)Cc1cnc[nH]1)C(=O)NN(CC1CCCCC1)C(=O)N[C@H](Cc1ccccc1)C(=O)N[C@@H](CCCCN)C(N)=O (H-H[dW]A[X1][dF]K-NH2)"
  measurement-kind: "pEC50"
  numeric-value: 5.37
- compound: "C[C@H](NC(=O)N(CC1CCCCC1)NC(=O)[C@@H](N)Cc1cnc[nH]1)C(=O)N[C@@H](Cc1c[nH]c2ccccc12)C(=O)N[C@H](Cc1ccccc1)C(=O)N[C@@H](CCCCN)C(N)=O (H-H[X1]AW[dF]K-NH2)"
  measurement-kind: "pEC50"
  numeric-value: 5.26
- compound: "C[C@H](NC(=O)[C@@H](Cc1c[nH]c2ccccc12)NC(=O)[C@@H](N)Cc1cnc[nH]1)C(=O)NN(Cc1ccc(-c2ccccc2)cc1)C(=O)N[C@H](Cc1ccccc1)C(=O)N[C@@H](CCCCN)C(N)=O (H-H[dW]A[X4][dF]K-NH2)"
  measurement-kind: "pEC50"
  numeric-value: 5.87
- compound: "C[C@H](NC(=O)[C@@H](Cc1c[nH]c2ccccc12)NC(=O)[C@@H](N)Cc1cnc[nH]1)C(=O)N[C@H](Cc1ccc(O)cc1)C(=O)N[C@H](Cc1ccccc1)C(=O)N[C@@H](CCCCN)C(N)=O (H-H[dW]A[dY][dF]K-NH2)"
  measurement-kind: "pEC50"
  numeric-value: 5.49
- compound: "C[C@H](NC(=O)[C@@H](Cc1c[nH]c2ccccc12)NC(=O)[C@@H](N)Cc1cnc[nH]1)C(=O)NN(CCc1ccccc1)C(=O)N[C@H](Cc1ccccc1)C(=O)N[C@@H](CCCCN)C(N)=O (H-H[dW]A[X2][dF]K-NH2)"
  measurement-kind: "pEC50"
  numeric-value: 5.43
- compound: "CC(C)CN(NC(=O)[C@@H](Cc1c[nH]c2ccccc12)NC(=O)[C@@H](N)Cc1cnc[nH]1)C(=O)N[C@@H](Cc1c[nH]c2ccccc12)C(=O)N[C@H](Cc1ccccc1)C(=O)N[C@@H](CCCCN)C(N)=O (H-H[dW][azaLeu]W[dF]K-NH2)"
  measurement-kind: "pEC50"
  numeric-value: 5.92
- compound: "C[C@H](NC(=O)[C@@H](Cc1c[nH]c2ccccc12)NC(=O)[C@@H](N)Cc1cnc[nH]1)C(=O)NN(Cc1ccccc1)C(=O)N[C@H](Cc1ccccc1)C(=O)N[C@@H](CCCCN)C(N)=O (H-H[dW]A[azaPhe][dF]K-NH2)"
  measurement-kind: "pEC50"
  numeric-value: 5.56
- compound: "C[C@H](NC(=O)[C@@H](Cc1c[nH]c2ccccc12)NC(=O)[C@@H](N)Cc1cnc[nH]1)C(=O)NN(Cc1cccc2ccccc12)C(=O)N[C@H](Cc1ccccc1)C(=O)N[C@@H](CCCCN)C(N)=O (H-H[dW]A[X3][dF]K-NH2)"
  measurement-kind: "pEC50"
  numeric-value: 6.14
- compound: "C[C@H](NC(=O)[C@@H](Cc1c[nH]c2ccccc12)NC(=O)[C@@H](N)Cc1cnc[nH]1)C(=O)N[C@@H](Cc1ccc(O)cc1)C(=O)N[C@H](Cc1ccccc1)C(=O)N[C@@H](CCCCN)C(N)=O (H-H[dW]AY[dF]K-NH2)"
  measurement-kind: "pEC50"
  numeric-value: 6.11

Now for another entry.
# get_value(readout='pEC50', item= C[C@H](NC(=O)[C@@H](Cc1c[nH]c2ccccc12)NC(=O)[C@@H](N)Cc1cnc[nH]1)C(=O)NN(Cc1ccc(O)cc1)C(=O)N[C@H](Cc1ccccc1)C(=O)N[C@@H](CCCCN)C(N)=O (H-H[dW]A[azaTyr][dF]K-NH2) ) 4.80

----------
Experiment: HS-R1a radioreceptor assay: GHS-R1a radioreceptor assay using LLCPK-1 membranes overexpressing GSH-R1a and radioiodinated (1-28) rat ghrelin as tracer.
Starred links: 1 amine or outer side, 2 acyl side, 3 side chain; linkers in the order of their positions; H or OH if unused. Non-standard residues stand in square brackets, D forms with d. Residues, ends and D or L forms follow the SMILES beside them. azaPhe = O=C(N(Cc1ccccc1)N[*:1])[*:2]; azaLeu = CC(C)CN(N[*:1])C(=O)[*:2]
measurement-kind: pEC50
Convention used: pEC50 is expressed as -log10 of the molar concentration.

- molecule: "CC(C)CN(NC(=O)[C@H](C)NC(=O)[C@@H](Cc1c[nH]c2ccccc12)NC(=O)[C@@H](N)Cc1cnc[nH]1)C(=O)N[C@H](Cc1ccccc1)C(=O)N[C@@H](CCCCN)C(N)=O (H-H[dW]A[azaLeu][dF]K-NH2)"
  pEC50: 4.71

Now for another entry.
# get_value(readout='pEC50', item= C[C@H](NC(=O)N(Cc1ccccc1)NC(=O)[C@@H](N)Cc1cnc[nH]1)C(=O)N[C@@H](Cc1c[nH]c2ccccc12)C(=O)N[C@H](Cc1ccccc1)C(=O)N[C@@H](CCCCN)C(N)=O (H-H[azaPhe]AW[dF]K-NH2) ) 4.79
